- ASSAY_SYSTEM: Caspase-10 (Homo sapiens, UniProt Q92851)
- Sequence (Q92851 220-415 limits assumed): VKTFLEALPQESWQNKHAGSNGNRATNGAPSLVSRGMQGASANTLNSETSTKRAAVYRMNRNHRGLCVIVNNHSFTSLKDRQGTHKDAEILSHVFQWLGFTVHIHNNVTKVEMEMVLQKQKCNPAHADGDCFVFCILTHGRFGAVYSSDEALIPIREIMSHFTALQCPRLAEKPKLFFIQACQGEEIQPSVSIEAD
- Sequence (Q92851 416-521 limits assumed): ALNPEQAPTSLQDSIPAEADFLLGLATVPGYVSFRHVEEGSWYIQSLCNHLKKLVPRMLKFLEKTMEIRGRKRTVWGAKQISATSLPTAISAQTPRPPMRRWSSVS
- ASSAY_SUMMARY: Caspase-10 progress curve inhibition assay
- CONDITION_INFO: second-order rate constant; Ac-DEVD-AMC substrate; Hepes/PEG buffer pH 7.0
Task for the reader: assign each of the following molecules its reported k2 Caspase-10.

Examples with answers:
[
  {
    "MOLECULE": "CC(C)C[C@H](NC(=O)OCc1ccccc1)C(=O)N[C@@H](CCC(=O)O)C(=O)N[C@H](C(=O)NN(CC(=O)O)C(=O)/C=C/C(=O)N(C)Cc1cccc2ccccc12)[C@@H](C)O (relative stereo)",
    "ASSAY_VALUE": "13,600 M^−1s^−1"
  },
  {
    "MOLECULE": "CC[C@H](C)[C@H](NC(=O)OCc1ccccc1)C(=O)N[C@@H](CCC(=O)O)C(=O)N[C@H](C(=O)NN(CC(=O)O)C(=O)/C=C/C(=O)NCCc1ccccc1)[C@@H](C)O (relative stereo)",
    "ASSAY_VALUE": "8,290 M^−1s^−1"
  },
  {
    "MOLECULE": "CC(C)[C@H](NC(=O)[C@H](CCC(=O)O)NC(=O)[C@H](CC(=O)O)NC(=O)OCc1ccccc1)C(=O)NN(CC(=O)O)C(=O)/C=C/C(=O)NCCc1ccccc1 (relative stereo)",
    "ASSAY_VALUE": "31,400 M^−1s^−1"
  },
  {
    "MOLECULE": "CCOC(=O)/C=C/C(=O)N(CC(=O)O)NC(=O)[C@@H](NC(=O)[C@H](CCC(=O)O)NC(=O)[C@@H](NC(=O)OCc1ccccc1)C(C)C)C(C)C (relative stereo)",
    "ASSAY_VALUE": "6,600 M^−1s^−1"
  },
  {
    "MOLECULE": "CC(C)[C@H](NC(=O)[C@H](CCC(=O)O)NC(=O)[C@H](CC(=O)O)NC(=O)OCc1ccccc1)C(=O)NN(CC(=O)O)C(=O)/C=C/C(=O)OCc1ccccc1 (relative stereo)",
    "ASSAY_VALUE": "28,300 M^−1s^−1"
  }
]

Give one value of k2 Caspase-10 per listed molecule.
1. CC(C)[C@H](NC(=O)[C@H](CCC(=O)O)NC(=O)[C@H](CC(=O)O)NC(=O)OCc1ccccc1)C(=O)NN(CC(=O)O)C(=O)/C=C/C(=O)N(C)CCc1ccccc1 (relative stereo)
2. CC[C@H](C)[C@H](NC(=O)OCc1ccccc1)C(=O)N[C@@H](CCC(=O)O)C(=O)N[C@H](C(=O)NN(CC(=O)O)C(=O)/C=C/C(=O)N(Cc1ccccc1)Cc1ccccc1)[C@@H](C)O (relative stereo)
3. CC(C)[C@H](NC(=O)[C@H](CCC(=O)O)NC(=O)[C@H](CC(=O)O)NC(=O)OCc1ccccc1)C(=O)NN(CC(=O)O)C(=O)/C=C/C(=O)N(Cc1ccccc1)Cc1ccccc1 (relative stereo)

Reply |
9,570 M^−1s^−1
7,930 M^−1s^−1
6,300 M^−1s^−1
